Each entry below lists one item and its recorded z-score value.
# Test Details: cell viability in Huh7 cells, primary screen, cytotoxicity control for HCV replication inhibitor project, CellTiter-Glo luminescence, basal, 48 h (AID 1143);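 further: Huh7 hepatoma cells carrying a hepatitis C replication reporter with no stimulus; test concentration not given here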
# Cond: Huh7 HCV replicon, higher = more signal, called active from +8 up or from −8 down
# respond with the number and nothing more

CCOC(=O)C[C@H]1[C@H](OC(=O)c2cc3ccccc3oc2=O)[C@@H](NC(=O)Cc2ccc(OC)cc2)c2cc(OCCCO)ccc2N1C(=O)c1ccc2ccccc2n1 | 0.0642

Request: For the compound `COCCOC(=O)N1C(=O)[C@@]2(c3cc(C#CC4=CCCCC4)ccc31)[C@H](c1ccccc1OCCO)N1[C@H](c3ccccc3)[C@H](c3ccccc3)OC(=O)[C@H]1[C@@H]2C(=O)N1CCCCCCC1` , give its measured z-score value.
Result: -4.01
